# TESTED ON: human platelet HPSE (Homo sapiens, UniProt Q9Y251)
# Construct: endogenous in cells
# Sequence (Q9Y251 158-543 limits assumed): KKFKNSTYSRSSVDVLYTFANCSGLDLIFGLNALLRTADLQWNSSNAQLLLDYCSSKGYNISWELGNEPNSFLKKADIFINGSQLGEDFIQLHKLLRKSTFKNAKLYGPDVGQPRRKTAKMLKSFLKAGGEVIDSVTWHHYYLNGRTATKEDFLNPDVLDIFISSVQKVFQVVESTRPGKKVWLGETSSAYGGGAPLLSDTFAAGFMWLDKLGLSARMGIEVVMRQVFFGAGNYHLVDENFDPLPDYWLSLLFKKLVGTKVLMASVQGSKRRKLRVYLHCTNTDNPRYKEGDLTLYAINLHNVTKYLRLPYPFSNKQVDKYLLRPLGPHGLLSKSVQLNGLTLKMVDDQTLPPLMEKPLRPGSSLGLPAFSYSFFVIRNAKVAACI
# Sequence (Q9Y251 36-109 limits assumed): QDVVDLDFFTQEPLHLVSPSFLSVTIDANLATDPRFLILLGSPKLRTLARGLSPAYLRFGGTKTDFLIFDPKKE
# METHOD NOTES: cABPP with fluorescence quantitation, platelet lysates, HPSE
# SETUP CONDITIONS: read-out: IC50 platelet HPSE inhibition
pIC50: −log10 of the molar value.
RECORDED ENDPOINT: pIC50

# pIC50 of CC(=O)N[C@H]1[C@@H](O[C@H]2[C@H](O)[C@@H](O)[C@@H]3O[C@@H]3[C@@H]2C(=O)O)O[C@H](COS(=O)(=O)O)[C@@H](O)[C@@H]1O = ~7.25

---

# TESTED ON: AcGH79 (Acidobacterium capsulatum, UniProt C1F2K5)
# Sequence (C1F2K5 entry or part of it): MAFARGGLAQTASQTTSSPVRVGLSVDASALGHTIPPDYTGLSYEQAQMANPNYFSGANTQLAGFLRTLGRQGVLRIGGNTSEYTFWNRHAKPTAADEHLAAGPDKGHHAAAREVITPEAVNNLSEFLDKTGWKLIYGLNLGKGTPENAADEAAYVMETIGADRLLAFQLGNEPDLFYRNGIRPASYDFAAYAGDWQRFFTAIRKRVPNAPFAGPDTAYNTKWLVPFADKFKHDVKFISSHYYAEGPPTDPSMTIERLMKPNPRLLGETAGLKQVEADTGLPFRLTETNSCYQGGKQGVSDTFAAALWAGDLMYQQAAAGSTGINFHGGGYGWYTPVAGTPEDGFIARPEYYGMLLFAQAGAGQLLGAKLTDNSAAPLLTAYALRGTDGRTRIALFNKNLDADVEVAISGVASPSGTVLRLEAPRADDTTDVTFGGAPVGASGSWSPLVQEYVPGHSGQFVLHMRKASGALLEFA
# METHOD NOTES: in-gel competitive ABPP, recombinant AcGH79
# SETUP CONDITIONS: Cy5-tagged β-D-glucuronidase ABP read-out, at the tested enzyme concentration
RECORDED ENDPOINT: IC50 (nM)
Response body: numeric value in nM, unit text excluded.

# IC50 of O=C(O)C1C2O[C@H]2C(O)C(O)[C@@H]1O[C@H]1CC(CO)[C@@H](O)C(O)C1O (stereo in doubt) = 1200

---

# TESTED ON: HPSE (platelet) (Homo sapiens, UniProt Q9Y251)
# Construct: endogenous in cells
# METHOD NOTES: cABPP Assay 2, platelet lysates, HPSE
# SETUP CONDITIONS: apparent IC50, in-gel competitive ABPP-based assay, platelet lysate; read-out: In vitro IC50 HPSE (platelet)
RECORDED ENDPOINT: IC50 (nM)
Response body: numeric value in nM, unit text excluded.

| COMPOUND | VALUE REPORTED |
| --- | --- |
| CC(=O)NC1C(O)[C@H](O)C(CO)O[C@@H]1O[C@H]1C(O)C(O)[C@@H]2OC2C1C(=O)O (stereo partly drawn) | 900 |
| O=C(O)C1C2O[C@H]2C(O)C(O)[C@@H]1O[C@H]1CC(CO)[C@@H](O)C(O)C1O (stereo in doubt) | 400 |

--- query ---
# IC50 of O=C(O)C1C2O[C@H]2C(O)C(O)[C@@H]1O[C@H]1OC(CO)[C@@H](O)C(O)C1O (stereo in doubt) = 5000

---

# TESTED ON: UniProtKB Q9Y251
# Sequence (Q9Y251 36-109 limits assumed): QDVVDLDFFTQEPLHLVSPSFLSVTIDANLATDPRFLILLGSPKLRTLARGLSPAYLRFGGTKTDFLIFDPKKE
# Sequence (Q9Y251 158-543 limits assumed): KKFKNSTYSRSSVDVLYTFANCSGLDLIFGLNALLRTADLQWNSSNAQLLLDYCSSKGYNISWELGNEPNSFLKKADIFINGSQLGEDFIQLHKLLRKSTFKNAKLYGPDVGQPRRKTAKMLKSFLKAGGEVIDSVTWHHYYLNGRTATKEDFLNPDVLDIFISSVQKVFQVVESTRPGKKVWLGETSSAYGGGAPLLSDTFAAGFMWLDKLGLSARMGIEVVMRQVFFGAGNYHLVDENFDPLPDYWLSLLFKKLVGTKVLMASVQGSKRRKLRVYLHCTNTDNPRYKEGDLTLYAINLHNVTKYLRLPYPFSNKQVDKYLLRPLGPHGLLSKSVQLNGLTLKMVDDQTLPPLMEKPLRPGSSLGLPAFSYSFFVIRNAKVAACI
# METHOD NOTES: cABPP Assay 1, recombinant HPSE
# Assay type: biochemical
# SETUP CONDITIONS: 1 h preincubation at 37° C., pH 5.5, 100 nM ABP 7
RECORDED ENDPOINT: HPSE inhibition (abrogation of labelling by ABP 7)

| MOLECULE | VALUE REPORTED |
| --- | --- |
| NC1C(O)[C@H](O)C(CO)O[C@@H]1O[C@H]1C(O)C(O)[C@@H]2OC2C1C(=O)O (some centres unmarked) | do not inhibit HPSE well |
| [N-]=[N+]=NCC(=O)NC1C(O)[C@H](O)C(CO)O[C@@H]1O[C@H]1C(O)C(O)[C@@H]2OC2C1C(=O)O (some centres unmarked) | do not inhibit HPSE well |
